- target: Rat brain protein farnesyltransferase (Rattus norvegicus, UniProt Q02293+Q04631)
- Construct: Rat brain protein farnesyltransferase activity is measured; from tissue; host or cells: rat brain
- assay: % inhibition of farnesylation, scintillation proximity assay with biotin-K Ras B fragment
- Format: biochemical
- test.context: Table 2; 1 × 10^-6 M
endpoint: % inhibition at 1 × 10^-6 M (%)
# number only, unit % dropped from output

For Cc1ccccc1-c1cc(CN(C)C(C)(C)CC2CCCCC2)ccc1C(=O)N[C@@H](CCS(C)(=O)=O)C(=O)O [Example 314] the compound record lists % inhibition at 1 × 10^-6 M as 97

For CSCC[C@H](NC(=O)c1ccc(CN2CCN(c3ccccc3)CC2)cc1-c1ccccc1C)C(=O)O [Example 867] the compound record lists % inhibition at 1 × 10^-6 M as 71

For CSCC[C@H](NC(=O)c1ccc(CC(Cc2ccccc2)c2ccccc2)cc1-c1ccccc1C)C(=O)[O-].[Li+] (stereo partly shown) [Example 572] the compound record lists % inhibition at 1 × 10^-6 M as 91
